experimental target: Serine/threonine-protein kinase B-raf (Homo sapiens, UniProt P15056, V600E)
Sequence (P15056 2-766 V600E limits assumed): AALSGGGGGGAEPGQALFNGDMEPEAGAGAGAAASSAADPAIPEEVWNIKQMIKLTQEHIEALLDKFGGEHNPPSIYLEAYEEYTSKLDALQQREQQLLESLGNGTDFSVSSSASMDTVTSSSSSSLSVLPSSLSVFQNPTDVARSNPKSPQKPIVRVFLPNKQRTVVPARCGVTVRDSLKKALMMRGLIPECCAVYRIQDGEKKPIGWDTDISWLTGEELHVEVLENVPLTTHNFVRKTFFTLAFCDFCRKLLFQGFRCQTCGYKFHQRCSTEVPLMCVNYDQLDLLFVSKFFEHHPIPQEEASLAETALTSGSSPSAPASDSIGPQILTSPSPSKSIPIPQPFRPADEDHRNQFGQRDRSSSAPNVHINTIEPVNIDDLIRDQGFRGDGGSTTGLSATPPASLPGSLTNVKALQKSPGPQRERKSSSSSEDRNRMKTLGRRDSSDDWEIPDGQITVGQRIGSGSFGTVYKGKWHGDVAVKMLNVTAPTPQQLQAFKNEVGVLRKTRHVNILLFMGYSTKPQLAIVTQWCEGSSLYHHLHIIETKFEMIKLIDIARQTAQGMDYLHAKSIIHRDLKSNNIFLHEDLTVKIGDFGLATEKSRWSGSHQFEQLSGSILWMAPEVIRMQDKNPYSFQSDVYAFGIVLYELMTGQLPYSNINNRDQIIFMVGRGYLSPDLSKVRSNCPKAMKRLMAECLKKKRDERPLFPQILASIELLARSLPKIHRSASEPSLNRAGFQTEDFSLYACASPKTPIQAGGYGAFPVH
test method notes: Inhibition of BRAF V600E mutant in human WM266.4 cells assessed as inhibition of ERK1/2 phosphorylation by ELISA
pIC50: −log10 of the molar value.

[
  {
    "compound": "COc1ccc(C2=NN(C(=O)c3ccc(Cl)cc3O)C(c3ccc(Cl)cc3)C2)cc1 (stereo unspecified)",
    "experimental target": "Serine/threonine-protein kinase B-raf (Homo sapiens, UniProt P15056, V600E)",
    "pIC50": 6.09
  }
]

* * *

test method notes: Inhibition of bovine FAK isolated from brain after 20 mins by turbidimetric analysis
Design: species or system Bos taurus
pIC50: −log10 of the molar value.

[
  {
    "compound": "COc1ccc(C2=NN(C(=O)c3ccc(Cl)cc3O)C(c3ccc(Cl)cc3)C2)cc1 (stereo unspecified)",
    "pIC50": "< 4.60"
  }
]

* * *

experimental target: Epidermal growth factor receptor (Homo sapiens)
Sequence (P00533 whole entry): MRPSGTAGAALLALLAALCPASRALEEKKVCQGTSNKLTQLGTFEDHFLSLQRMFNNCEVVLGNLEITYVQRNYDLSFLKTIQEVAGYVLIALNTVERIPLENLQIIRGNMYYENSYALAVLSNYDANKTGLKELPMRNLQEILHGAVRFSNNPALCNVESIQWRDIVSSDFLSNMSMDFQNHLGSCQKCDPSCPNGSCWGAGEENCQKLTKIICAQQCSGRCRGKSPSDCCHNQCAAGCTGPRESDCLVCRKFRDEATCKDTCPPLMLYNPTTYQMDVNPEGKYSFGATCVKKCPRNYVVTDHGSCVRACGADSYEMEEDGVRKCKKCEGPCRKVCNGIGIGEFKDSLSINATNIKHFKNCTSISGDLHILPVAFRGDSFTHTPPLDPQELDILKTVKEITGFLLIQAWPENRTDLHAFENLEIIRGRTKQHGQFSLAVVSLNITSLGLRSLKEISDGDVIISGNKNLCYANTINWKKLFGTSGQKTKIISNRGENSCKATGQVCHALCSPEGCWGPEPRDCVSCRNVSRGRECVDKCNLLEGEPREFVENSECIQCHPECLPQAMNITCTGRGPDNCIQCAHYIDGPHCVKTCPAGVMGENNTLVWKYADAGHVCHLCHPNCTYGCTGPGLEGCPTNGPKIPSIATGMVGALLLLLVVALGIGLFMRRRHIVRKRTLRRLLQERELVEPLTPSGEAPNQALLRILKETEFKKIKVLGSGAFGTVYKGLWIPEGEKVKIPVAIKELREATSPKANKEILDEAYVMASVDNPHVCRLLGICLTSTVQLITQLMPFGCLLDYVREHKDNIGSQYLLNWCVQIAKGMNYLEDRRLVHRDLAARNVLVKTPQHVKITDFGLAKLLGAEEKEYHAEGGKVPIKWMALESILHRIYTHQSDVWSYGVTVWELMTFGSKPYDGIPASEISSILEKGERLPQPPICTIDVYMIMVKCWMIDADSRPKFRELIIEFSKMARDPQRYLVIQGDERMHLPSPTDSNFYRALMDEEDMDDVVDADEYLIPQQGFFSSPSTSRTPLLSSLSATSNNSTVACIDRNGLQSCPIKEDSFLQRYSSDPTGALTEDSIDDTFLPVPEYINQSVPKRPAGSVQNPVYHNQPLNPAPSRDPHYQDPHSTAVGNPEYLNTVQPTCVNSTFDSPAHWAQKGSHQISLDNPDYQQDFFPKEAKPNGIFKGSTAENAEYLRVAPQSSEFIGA
pIC50: −log10 of the molar value.

[
  {
    "molecule": "COc1ccc(C2=NN(C(=O)c3ccc(Cl)cc3O)C(c3ccc(Cl)cc3)C2)cc1 (stereo unspecified)",
    "pIC50": 4.98
  }
]

Hey, just so you know, these numbers are from ChEMBL document CHEMBL2157921.
